System: FXR:RXRa (NR concentration 270 nM, RXRa partner concentration 90 nM)
Assay: PBM binding z-score (relative to random genomic background probes); higher = stronger binding; sequences stand for … in GC…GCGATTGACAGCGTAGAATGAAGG
Param threshold (0.4) applies to PBM binding z-score; output Satisfied when value >= threshold, Not satisfied when value < threshold.

| sequence_data | study_target | assigned_class |
| --- | --- | --- |
| CCTTACGGGTCACGAGGTAATAGCACGACGAGCG | FXR:RXRa (NR concentration 270 nM, RXRa partner concentration 90 nM) | Satisfied |
| TCGAGTAGGTTAGGGGCATTCACAATGGCGTCGA | FXR:RXRa (NR concentration 270 nM, RXRa partner concentration 90 nM) | Satisfied |
| TCTAGGTGGTCAAAGGTCACACACTCGAAATGCG | FXR:RXRa (NR concentration 270 nM, RXRa partner concentration 90 nM) | Satisfied |
| TCTTGTAGATCCACAGGAGGTTAAGAAAGATCGA | FXR:RXRa (NR concentration 270 nM, RXRa partner concentration 90 nM) | Not satisfied |
| CCCACTGGGGCAAGGTTACCATAACGCACAGCCA | FXR:RXRa (NR concentration 270 nM, RXRa partner concentration 90 nM) | Not satisfied |
| AGGATGAGGTTATTAAGATCAGGGAATTGCGGTC | FXR:RXRa (NR concentration 270 nM, RXRa partner concentration 90 nM) | Satisfied |
| CCAGACAGGTGAAACGTAACTCAGTCTGGTACGC | FXR:RXRa (NR concentration 270 nM, RXRa partner concentration 90 nM) | Not satisfied |
| TCGAGTAGGTTAGTCGGGGTATTCAGCCAACATA | FXR:RXRa (NR concentration 270 nM, RXRa partner concentration 90 nM) | Not satisfied |
| ATATGTAGGTTACATCCGGGTCATTCAAGCTATG | FXR:RXRa (NR concentration 270 nM, RXRa partner concentration 90 nM) | Satisfied |
| TCGAGTACGTTACCAATGGGGCATTCAGCTTTCT | FXR:RXRa (NR concentration 270 nM, RXRa partner concentration 90 nM) | Not satisfied |

Here's the next entry for you.
Dear colleague, could you confirm whether CAAACTAGGTCACGAAAGGTCACAGTCGAATGAC has PBM binding z-score at or above 0.4?
Satisfied

###

Test system: RARb homodimer (NR concentration 270 nM)
Test: PBM binding z-score (relative to random genomic background probes); higher = stronger binding; sequences stand for … in GC…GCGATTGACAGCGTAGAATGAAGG
Param threshold (0.4) applies to PBM binding z-score; output met when value >= threshold, not met when value < threshold.

Solved entries (count: 4):
| sequence_data | assigned_class |
| --- | --- |
| CCCGCTAGGTCAATGGTCAGCTAAAGCAGCTCGC | met |
| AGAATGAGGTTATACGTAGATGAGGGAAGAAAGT | met |
| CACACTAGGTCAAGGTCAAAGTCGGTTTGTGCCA | met |
| GGAACGAGCGCATTCGAGTTGATAGCATGGCGAT | not met |

Dear colleague, could you confirm whether ACTAGTTGGTCAGCTGCGGTCACACACAATTCGG has PBM binding z-score at or above 0.4?
met

Also check GGAACGATGGCAAAGTTGATAGCATCTGTCGACG
not met
